Values from paper PMC8041674

Tested on: plasma proteins
Assay comment: [^18F] fluspidine binding to plasma proteins (ultracentrifugation)
Assay type: in vitro ADME
Experimental conditions: human, read-out: fraction of free tracer in plasma, not bound to plasma proteins
Quantity: fraction unbound
Give the figure only, with no unit attached.

Q) Item FCC[C@@H]1OC2(CCN(Cc3ccccc3)CC2)c2ccccc21 [[^18F] fluspidine, (S)-(-)-[^18F] Fluspidine] : provide fraction unbound
A) 0.023
